Reported folding stability dG values for a set of variants
B1: EHEE_rd2_0196 (parent)
chain: TETRTFDSEEEAKKAQKEAEKQGRTVTITRRDDRWEVRFD

Variants of: B1
EXPERIMENT_DESCRIPTION: folding stability dG (cDNA display proteolysis); higher = more stable
TEST_CONTEXT: PBS, room temperature
# number only, unit kcal/mol dropped from output

| VARIANT_NOTATION | folding stability dG [kcal/mol] |
| --- | --- |
| K21D | 3.08 |
| E18C | 3 |
| T1H | 3.05 |

For record T27I the listed folding stability dG is 2.94

For record T1L the listed folding stability dG is 3.04

For record T27E the listed folding stability dG is 2.03

For record K14V the listed folding stability dG is 2.94
